# System: HOP-62
# procedureSummary: NCI tumour cell line growth inhibition, 48 h
Calls of active or inactive are those of the source. Cut-off read from the data, not from the text of the source: active = GI50 up to about 1.1 µM and inactive = higher.
attributeMeasured: GI50

chemsmiles=N#CC1=C(O)NC(O)=C(C#N)C1c1c(Cl)cccc1Cl subjectoftest=HOP-62 assayresult="27.7 µM (inactive)"

GI50 for "COc1c2c(c3c(c1OC)c(=O)c1ccccc1n3C)OCO2" ?
> 100 µM (inactive)

// same read-out, input: "COc1ccc(NC(=O)CSc2nnc(-c3ccc(NC(C)=O)cc3)o2)cc1"
34.1 µM (inactive)

And "N[C@H](C(=O)O)[C@@H]1CC(Br)=NO1" ?
12.2 µM (inactive)

Could you do the same for "Oc1c(Br)ccc2cccnc12" , please?
12.4 µM (inactive)

Could you do the same for "O=C1NC(=O)C(CCO)(c2ccccc2)C(=O)N1" , please?
> 100 µM (inactive)
